Molecular target: CFTR (Homo sapiens, UniProt P13569)
Sequence (P13569 whole entry): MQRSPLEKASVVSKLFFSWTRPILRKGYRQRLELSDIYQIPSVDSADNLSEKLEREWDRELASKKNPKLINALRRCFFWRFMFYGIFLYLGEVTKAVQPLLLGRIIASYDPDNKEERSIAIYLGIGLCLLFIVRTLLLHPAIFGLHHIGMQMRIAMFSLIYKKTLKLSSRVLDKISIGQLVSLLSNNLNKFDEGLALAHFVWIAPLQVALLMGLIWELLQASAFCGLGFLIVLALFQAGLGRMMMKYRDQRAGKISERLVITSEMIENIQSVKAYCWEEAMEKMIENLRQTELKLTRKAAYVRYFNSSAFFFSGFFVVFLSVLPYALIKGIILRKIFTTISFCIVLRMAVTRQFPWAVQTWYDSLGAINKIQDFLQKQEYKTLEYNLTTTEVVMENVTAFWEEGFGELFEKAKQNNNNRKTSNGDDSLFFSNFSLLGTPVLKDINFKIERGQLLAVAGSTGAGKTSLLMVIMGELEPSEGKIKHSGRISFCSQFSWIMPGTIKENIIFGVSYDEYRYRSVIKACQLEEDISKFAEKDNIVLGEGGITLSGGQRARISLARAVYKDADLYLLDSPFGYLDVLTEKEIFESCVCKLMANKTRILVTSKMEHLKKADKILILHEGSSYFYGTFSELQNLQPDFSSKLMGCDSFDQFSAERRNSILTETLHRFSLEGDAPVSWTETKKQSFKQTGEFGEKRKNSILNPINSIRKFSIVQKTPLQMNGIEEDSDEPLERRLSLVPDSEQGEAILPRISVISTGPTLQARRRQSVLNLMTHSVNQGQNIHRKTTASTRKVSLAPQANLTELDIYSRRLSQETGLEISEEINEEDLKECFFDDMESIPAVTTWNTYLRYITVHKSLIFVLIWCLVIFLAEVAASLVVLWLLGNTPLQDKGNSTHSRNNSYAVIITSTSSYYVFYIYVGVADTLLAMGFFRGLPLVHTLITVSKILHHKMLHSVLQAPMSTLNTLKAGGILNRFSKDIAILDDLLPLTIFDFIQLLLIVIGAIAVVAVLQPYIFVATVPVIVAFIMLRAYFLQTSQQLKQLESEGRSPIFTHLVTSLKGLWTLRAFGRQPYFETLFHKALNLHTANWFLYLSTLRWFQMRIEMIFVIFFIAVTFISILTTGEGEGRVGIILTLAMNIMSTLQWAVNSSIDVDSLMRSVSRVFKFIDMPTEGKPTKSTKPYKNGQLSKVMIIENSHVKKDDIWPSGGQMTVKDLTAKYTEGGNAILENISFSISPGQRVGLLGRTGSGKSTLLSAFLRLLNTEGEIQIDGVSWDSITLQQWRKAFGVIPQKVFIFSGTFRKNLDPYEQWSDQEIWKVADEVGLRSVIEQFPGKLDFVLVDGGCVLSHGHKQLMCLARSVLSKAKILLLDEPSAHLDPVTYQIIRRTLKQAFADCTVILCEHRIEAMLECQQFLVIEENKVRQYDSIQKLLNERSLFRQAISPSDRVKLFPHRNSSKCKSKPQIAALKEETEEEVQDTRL
Test: Whole-cell patch-clamp on FRT cells expressing CFTR
Assay type: cell-based
Parameters: expressed in transfected cells; host or cells: Fisher Rat Thyroid (FRT) cells, stably transfected
Conditions: +20 mV; 5 μM forskolin; read-out: apparent Ki
metric: Ki
Write the quantity with the unit trailing the number.

Ki reported for this molecule `O=C(CNc1ccc2ccccc2c1)NN=Cc1cc(Br)c(O)c(Br)c1O` : 3.8 µM

----------
I'd be grateful if you could share measured Ki for these entries.
Target: CFTR (Homo sapiens)
Assay: Short-circuit current (apical Cl− current) analysis on permeabilized CFTR-expressing FRT cells
Conditions: Ki, Table 3, Group III; concentration giving 50% inhibition of CFTR Cl− conductance
Value expressed in µM; do not type the unit.

Field Ki (entry `O=C(NNCc1cc(Br)c(O)c(Br)c1O)C(=O)Nc1ccc2ccccc2c1` ) reads 10

# Ki (molecule: `O=C(NNCc1cc(Br)c(O)c(Br)c1)C(=O)Nc1ccc2ccccc2c1` ) is 12

----------
Biological target: CFTR (Homo sapiens, UniProt P13569)
Test: Short-circuit current (apical Cl− current) analysis on permeabilized CFTR-expressing FRT cells
Conditions: Ki, Table 2, Group II; concentration giving 50% inhibition of CFTR Cl− conductance
pKi: −log10 of the molar value.
Please go through the items and note down their pKi.

Short answer for `O=C(NNC(=O)c1cc(Br)c(O)c(Br)c1)C(=O)Nc1ccc2ccccc2c1` : pKi was < 4.30

Form: compound = `O=C(CNc1ccc2ccccc2c1)NNC(=O)c1cc(Br)c(O)c(Br)c1` ; pKi = 4.66

Lab book: pKi of `O=C(NNC(=O)c1cc(Br)c(O)c(Br)c1O)C(=O)Nc1ccc2ccccc2c1` noted as < 4.30

----------
Target: UniProt P13569
Experiment: Short-circuit current (apical Cl− current) analysis on permeabilized CFTR-expressing FRT cells
Conditions: Ki, Table 1, Group I; concentration giving 50% inhibition of CFTR Cl− conductance
metric: Ki (µM)
Dear colleague, please return just the value in µM, with no unit written.

molecule `O=C(CNc1ccc(Cl)cc1)NN=Cc1cc(Br)c(O)c(Br)c1` , Ki observed: 5

Kindly note the recorded Ki for `CC(=NNC(=O)CNc1ccc2ccccc2c1)c1cc(Br)c(O)c(Br)c1` , which is 2.5

Just so you know, measured Ki for `CC(=NNC(=O)C(=O)Nc1ccc2ccccc2c1)c1cc(Br)c(O)c(Br)c1O` came out at 3

`O=C(NN=Cc1cc(Br)c(O)c(Br)c1O)C(=O)Nc1ccc2ccccc2c1` has a reported Ki of 2

Kindly note the recorded Ki for CC(Nc1ccc2ccccc2c1)C(=O)NN=Cc1cc(Br)c(O)c(Br)c1 (stereo not drawn) , which is 10

The recorded Ki for entry `O=C(CNc1cccc2ccccc12)NN=Cc1cc(Br)c(O)c(Br)c1O` equals 12

For this molecule ( `O=C(CNc1ccc(Cl)cc1)NN=Cc1cc(Br)c(O)c(Br)c1O` ), measured Ki is 5

response.value for `O=C(CNc1cccc2ccccc12)NN=Cc1cc(Br)c(O)c(Br)c1` (field: Ki) = 15

Kindly note the recorded Ki for `Cc1ccc(NCC(=O)NN=Cc2cc(Br)c(O)c(Br)c2O)cc1` , which is 10

What the record says about `CC(=NNC(=O)C(=O)Nc1ccc2ccccc2c1)c1cc(Br)c(O)c(Br)c1` : Ki is 3

Input `COc1c(Br)cc(C=NNC(=O)CNc2ccc3ccccc3c2)c(O)c1Br` . Output Ki: 20

Form: molecule = `O=C(NN=Cc1cc(Br)c(O)c(Br)c1)C(=O)Nc1ccc2ccccc2c1` ; Ki = 2.5

----------
Biological target: CFTR (Homo sapiens)
Assay: Whole-cell patch-clamp on FRT cells expressing CFTR
Assay type: cell-based
Design: expressed in transfected cells; host or cells: Fisher Rat Thyroid (FRT) cells, stably transfected
Conditions: −60 mV; 5 μM forskolin; read-out: apparent Ki
metric: pKi
Notebook: values listed as pKi are -log10 of the concentration (mol/L).

The compound listed as `O=C(CNc1ccc2ccccc2c1)NN=Cc1cc(Br)c(O)c(Br)c1O` shows pKi equal to 5.25

----------
Experiment: Spectrophotometric pH titration (pKa)
Assay type: physicochemical
Details: read-out: pKa, secondary amine
metric: pKa

Kindly note the recorded pKa for CCOC(=O)CNc1ccc2ccccc2c1 [ethyl N-(2-napthalenyl) glycinate, ethyl N-(2-naphthalenyl)glycinate] , which is ~4.7

----------
Molecular target: CFTR (cAMP-stimulated short-circuit current) in T84 cells (Homo sapiens, UniProt P13569)
Construct: endogenous in cells
Experiment: Short-circuit current in non-permeabilized T84 cells
Details: CPT-cAMP after amiloride, read-out: Ki for inhibition of cAMP-stimulated short-circuit current
metric: Ki

Quick note, Ki for O=C(CNc1ccc2ccccc2c1)NN=Cc1cc(Br)c(O)c(Br)c1O [GlyH-101] landed at ~5 µM

----------
Target: CFTR (Homo sapiens)
Assay: Short-circuit current (apical Cl− current) analysis on permeabilized CFTR-expressing FRT cells
Conditions: FRT, read-out: % inhibition at 50 μM
Decision: inhibition at 50 µM >= 80% yields rule met, all other cases yield rule not met.

Check this compound for inhibition at 50 µM at or above 80%: `O=C(COc1ccc2ccccc2c1)NN=Cc1cc(Br)c(O)c(Br)c1`
rule met

Quick check: does `CC(=NNC(=O)CNc1ccc2ccccc2c1)c1cc(Br)c(O)c(Br)c1` have inhibition at 50 µM greater than or equal to 80%?
rule met

Record `Cc1ccc(CC(=O)NN=Cc2cc(Br)c(O)c(Br)c2O)cc1` ; criterion: inhibition at 50 µM no lower than 80%. Met?
rule not met

In plain terms: is recorded inhibition at 50 µM at least 80% for `O=C(CNc1ccc2ccccc2c1)NNCc1cc(Br)c(O)c(Br)c1` ?
rule not met

Does inhibition at 50 µM meet or surpass 80% for `O=C(NNCc1cc(Br)c(O)c(Br)c1O)C(=O)Nc1ccc2ccccc2c1` ?
rule not met

Entry `COc1c(Br)cc(C=NNC(=O)CNc2ccc3ccccc3c2)c(O)c1Br` : is its inhibition at 50 µM no less than 80%?
rule not met

Please tell me: is the compound `O=C(CNc1cccc2ccccc12)NN=Cc1cc(Br)c(O)c(Br)c1` at or over 80% in terms of inhibition at 50 µM?
rule met

----------
Molecular target: CFTR (Homo sapiens)
Assay: Whole-cell patch-clamp on FRT cells expressing CFTR
Assay type: cell-based
Parameters: expressed in transfected cells; host or cells: Fisher Rat Thyroid (FRT) cells, stably transfected
Conditions: +60 mV; 5 μM forskolin; read-out: apparent Ki
metric: Ki (nM)
Provide the reading as a plain figure in nM.

For `O=C(CNc1ccc2ccccc2c1)NN=Cc1cc(Br)c(O)c(Br)c1O` the molecule record lists Ki as 1400

----------
Target: CFTR (Homo sapiens)
Assay: Short-circuit current (apical Cl− current) analysis on permeabilized CFTR-expressing FRT cells
Details: read-out: Ki of screening hits; dose-response measurements, confirmed by short-circuit current analysis
metric: Ki

The compound listed as O=C(CNc1ccc2ccccc2c1)NN=Cc1cc(Br)c(O)c(Br)c1O [GlyH-101] has a reported Ki of ~5 µM

----------
Biological target: CFTR (Homo sapiens, UniProt P13569)
Test: Short-circuit current (apical Cl− current) analysis on permeabilized CFTR-expressing FRT cells
Settings: FRT, read-out: % inhibition at 50 μM
For each of the molecules below, state its inhibition at 50 µM.

Lab note: `O=C(CNc1ccc2ccccc2c1)NNC(=O)c1cc(Br)c(O)c(Br)c1` gave inhibition at 50 µM of 57%

Summary for this molecule, `O=C(NN=Cc1cc(Br)c(O)c(Br)c1O)C(=O)Nc1ccc2ccccc2c1` : inhibition at 50 µM is 86%

Sure, the documented inhibition at 50 µM for `O=C(CNc1ccc(Cl)cc1)NN=Cc1cc(Br)c(O)c(Br)c1` is 95%

Value of inhibition at 50 µM reported for the molecule `CC(=NNC(=O)C(=O)Nc1ccc2ccccc2c1)c1cc(Br)c(O)c(Br)c1` is 90%

Form: molecule = `O=C(CNc1ccc(Cl)cc1)NN=Cc1cc(Br)c(O)c(Br)c1O` ; inhibition at 50 µM = 91%

Sure, the documented inhibition at 50 µM for `CC(=NNC(=O)C(=O)Nc1ccc2ccccc2c1)c1cc(Br)c(O)c(Br)c1O` is 95%

Documented inhibition at 50 µM of `O=C(COc1ccc2ccccc2c1)NN=Cc1cc(Br)c(O)c(Br)c1O` : 84%

According to the records, this molecule `O=C(CNc1cccc2ccccc12)NN=Cc1cc(Br)c(O)c(Br)c1O` displays inhibition at 50 µM of 86%

inhibition at 50 µM in this record for `Cc1ccc(NCC(=O)NN=Cc2cc(Br)c(O)c(Br)c2O)cc1` : 79%

Reported inhibition at 50 µM ( `Cc1ccc(CC(=O)NN=Cc2cc(Br)c(O)c(Br)c2)cc1` ) = 63%

The recorded inhibition at 50 µM for entry `O=C(NN=Cc1cc(Br)c(O)c(Br)c1)C(=O)Nc1ccc2ccccc2c1` equals 52%
